- Test system: Human papillomavirus type 1a E7 protein (residues 1-88)
- Assay explanation: HPV1a E7 small-molecule binders, primary screen, biochemical, small-molecule microarray, residues 1-88, 635 nm (AID 1129)
- Cond: small-molecule microarray binding, fluorescence 635 nm; higher = more signal
Measured property: composite z-score
Reply briefly: the number, and no unit.

Look up and report measured composite z-score for this entry: COC(=O)[C@@H]1N=C(c2ccc(OCCCO)cc2)O[C@@H]1C 0.0927

Look up and report measured composite z-score for this entry: CCCCC(=C=CC[C@H](O)c1ccc(OCCO)cc1)CCO 0.0547

Look up and report measured composite z-score for this entry: O=C1O[C@H](c2ccccc2)[C@H](c2ccccc2)N2[C@H]1[C@@H](C(=O)O)[C@]1(C(=O)Nc3ccc(C#CCCO)cc31)[C@H]2c1ccccc1OCCO 0.0764

Look up and report measured composite z-score for this entry: CCCCC(O)C1C=CC2C(=O)N(C)C(=O)C2N1N(c1ccccc1)c1ccccc1 (stereo unspecified) 1.15

Look up and report measured composite z-score for this entry: CN1C2C=C(CCCO)C(C3C(=O)N(C(N)=O)C(=O)C32)C1C1CC1 (stereo unspecified) 0.186

Look up and report measured composite z-score for this entry: CN(C)C(=O)[C@]1(Cc2ccccc2CN=[N+]=[N-])N=C(c2ccc(OCCCO)cc2)O[C@@H]1c1ccccc1 1.22

Look up and report measured composite z-score for this entry: CCOc1cc(C(O)C2C=CC3C(=O)NC(=O)C3N2Nc2ccc(Cl)cc2Cl)ccc1O (stereo unspecified) -0.537

Look up and report measured composite z-score for this entry: C=CCOC(=O)[C@@H]1[C@H]2C(=O)O[C@H](c3ccccc3)[C@H](c3ccccc3)N2[C@H](c2ccc(OCCOC(=O)[C@@H]3C[C@@H]4C(=O)N[C@@H](CCCC[N+](C)(C)C)C(=O)N4[C@@H]3c3ccc(O)cc3)cc2)[C@@]12C(=O)Nc1ccc(I)cc12 1.15

Look up and report measured composite z-score for this entry: CCCCC[C@H]1OC[C@@]23C=C(Br)[C@@H](CC12)[C@@]1(CO1)C3=O (stereo partly specified) -0.327

Look up and report measured composite z-score for this entry: CC[C@@H]1C=C(C(=O)O)[C@H](c2ccccc2)N1S(=O)(=O)c1ccc(C)cc1 1.17

Look up and report measured composite z-score for this entry: O=C(NCc1ccc(F)cc1)[C@H]1C[C@H]2C(=O)NCC(=O)N2[C@H]1c1ccc(O)cc1 -0.121

Look up and report measured composite z-score for this entry: CN(C)c1ccc(C(O)C2C=CC3C(=O)NC(=O)C3N2Nc2ccccn2)cc1 (stereo unspecified) 0.683

Look up and report measured composite z-score for this entry: O=C1N(CCS(=O)(=O)c2ccccc2)c2ccccc2[C@H]2OC(c3ccc(OCCCO)cc3)=N[C@@]12Cc1ccccc1 0.936

Look up and report measured composite z-score for this entry: CC1CC/C=C\[C@H]2OC34C=CCN(c5ccc(Cl)cc5)C(=O)[C@H]3N(C(C)CO)C(=O)[C@]4(C)C2C(=O)O1 (stereo partly specified) -1.5

Look up and report measured composite z-score for this entry: CC(C)N1C(=O)c2ccccc2[C@@H](C(=O)NCCN2CCOCC2)[C@@H]1c1ccc(CO)cc1 -0.736

Look up and report measured composite z-score for this entry: CC(C)N1C(=O)C[C@@](C(=O)O)(c2ccc([N+](=O)[O-])cc2)[C@H]1c1ccc(CO)cc1 -0.619
